Target: T1, biotinylated GITR (human, UniProt Q9Y5U5 26-161, limits assumed, biotinylated (sites not given))
T1 construct: also called GITR-bio; Biotin-GITR
T1 sequence: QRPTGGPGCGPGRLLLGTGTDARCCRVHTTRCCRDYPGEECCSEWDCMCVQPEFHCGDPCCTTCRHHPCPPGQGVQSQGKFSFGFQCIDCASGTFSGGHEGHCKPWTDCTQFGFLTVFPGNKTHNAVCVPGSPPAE
Assay: BLI (Octet), biotin-GITR on streptavidin tips, antibody supernatant
measurement label: Kd (nM)

binder	measurement label	test result
germline variant antibody 21 (H1916C03 / K1916C03) (antibody, V domains shown, IGHG1/IGKC expression vectors; measured from CHO culture supernatant; also called Antibody ID 21) VH: QVQLVQSGTEVKKPGASVKVSCKGSGYTFTGYVMHWVRQAPGQGMEWIGVIRTFSGDVSYNQKFRERVTMTVDTSISTAYMELSRLRSDDTAVYYCAKSGTVRGFAYWGQGTLVTVSS VL: DIVMTQSPDSLAVSLGERATINCKSSQSLLNSGNQKNYLTWYHQKPGQPPKLLIYWASTRESGVPDRFSGSGSGTDFTLTISSVQAEDVAVYHCQNDYSYPYTFGQGTKLEIK	Kd	8.44
germline variant antibody 38 (H1916D08 / K1916D08) (antibody, V domains shown, IGHG1/IGKC expression vectors; measured from CHO culture supernatant; also called Antibody ID 38) VH: QVQLVQSGTEVKKPGASVKVSCKGSGYTFTGYAMYWVRQAPGQGLEWIGVIKTYSGGVTYNQKFRGRVTMTVDKSISTAYMELSRLRSDDTAVYYCAKSGTVRGFAYWGQGTLVTVSS VL: DIVMTQSPDSLAVSLGERATINCKSSQSLLNSGNQKNYLTWYQQKPGQPPKLLIYWASTRESGVPDRFSGSGSGTDFTLTISSLQAEDVAVYYCQNDYSYPYTFGQGTKLEIK	Kd	0.0875
germline variant antibody 25 (H1916C07 / K1916C07) (antibody, V domains shown, IGHG1/IGKC expression vectors; measured from CHO culture supernatant; also called Antibody ID 25) VH: QVQLVQSGAEVKKPGASVKVSCKASGYTFTEYAMYWVRQAPGQGLEWMGLIRTFSGGVSYNQKFRGRATMTVDTSISTAYMELSRLRSDDTAVYYCAKSGTVRGFAYWGQGTLVTVSS VL: DIVMTQSPDSLAVSLGERATINCKSSQSLLNSGNQKNYLTWYQQKPGQPPKMLIYWASTRESGVPDRFTGSGSGTDFTLTISSVQAEDVAVYYCQNDYSFPYTFGQGTKLEIK	Kd	1.69

Hey, just so you know, these numbers are from patent US20210070872A1.
